- system name: CDK12 (nuclear staining in CAL-120 cells) (Homo sapiens, UniProt Q9NYV4)
- Construct: endogenous in cells; host or cells: CAL-120 human breast cancer cells (DSMZ ACC 459)
- Sequence (Q9NYV4 whole entry): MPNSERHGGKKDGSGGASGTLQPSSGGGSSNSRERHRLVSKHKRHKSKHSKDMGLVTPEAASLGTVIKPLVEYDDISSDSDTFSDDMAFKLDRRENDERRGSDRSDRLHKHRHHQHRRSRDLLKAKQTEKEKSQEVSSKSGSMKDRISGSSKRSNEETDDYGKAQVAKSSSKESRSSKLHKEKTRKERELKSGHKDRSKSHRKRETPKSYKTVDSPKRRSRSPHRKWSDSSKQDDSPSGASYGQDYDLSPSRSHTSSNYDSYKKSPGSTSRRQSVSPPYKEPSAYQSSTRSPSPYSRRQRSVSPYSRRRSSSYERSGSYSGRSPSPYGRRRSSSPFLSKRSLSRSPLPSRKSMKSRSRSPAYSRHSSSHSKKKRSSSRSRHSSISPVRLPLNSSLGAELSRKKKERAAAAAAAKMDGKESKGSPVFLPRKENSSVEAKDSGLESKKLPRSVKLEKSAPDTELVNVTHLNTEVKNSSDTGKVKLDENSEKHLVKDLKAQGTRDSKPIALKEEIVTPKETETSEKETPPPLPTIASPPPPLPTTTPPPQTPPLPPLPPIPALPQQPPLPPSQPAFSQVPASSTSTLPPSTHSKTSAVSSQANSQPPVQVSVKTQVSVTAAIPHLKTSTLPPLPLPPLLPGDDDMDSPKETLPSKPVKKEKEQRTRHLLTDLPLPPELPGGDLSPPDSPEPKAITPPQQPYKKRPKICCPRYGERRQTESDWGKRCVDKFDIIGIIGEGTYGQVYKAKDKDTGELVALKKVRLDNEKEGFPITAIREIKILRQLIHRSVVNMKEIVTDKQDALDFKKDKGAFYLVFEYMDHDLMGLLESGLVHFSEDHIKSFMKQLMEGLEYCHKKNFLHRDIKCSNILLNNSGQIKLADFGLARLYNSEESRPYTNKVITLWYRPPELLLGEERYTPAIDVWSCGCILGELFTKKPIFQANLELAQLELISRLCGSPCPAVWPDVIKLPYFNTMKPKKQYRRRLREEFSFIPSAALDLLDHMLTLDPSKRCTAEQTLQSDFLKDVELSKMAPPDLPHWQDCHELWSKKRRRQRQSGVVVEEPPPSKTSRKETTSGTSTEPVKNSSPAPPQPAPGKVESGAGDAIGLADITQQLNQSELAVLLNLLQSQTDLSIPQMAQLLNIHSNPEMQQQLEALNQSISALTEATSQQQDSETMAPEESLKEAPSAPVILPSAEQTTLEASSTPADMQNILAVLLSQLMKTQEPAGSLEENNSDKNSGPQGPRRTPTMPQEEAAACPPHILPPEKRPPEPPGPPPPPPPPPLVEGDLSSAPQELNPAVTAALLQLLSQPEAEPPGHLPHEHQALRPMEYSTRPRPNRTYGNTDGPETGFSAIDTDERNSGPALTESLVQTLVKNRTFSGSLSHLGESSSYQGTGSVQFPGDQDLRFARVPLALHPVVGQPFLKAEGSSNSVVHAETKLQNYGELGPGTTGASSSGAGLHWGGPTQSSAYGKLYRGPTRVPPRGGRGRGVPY
- Sequence (O75909 whole entry partner): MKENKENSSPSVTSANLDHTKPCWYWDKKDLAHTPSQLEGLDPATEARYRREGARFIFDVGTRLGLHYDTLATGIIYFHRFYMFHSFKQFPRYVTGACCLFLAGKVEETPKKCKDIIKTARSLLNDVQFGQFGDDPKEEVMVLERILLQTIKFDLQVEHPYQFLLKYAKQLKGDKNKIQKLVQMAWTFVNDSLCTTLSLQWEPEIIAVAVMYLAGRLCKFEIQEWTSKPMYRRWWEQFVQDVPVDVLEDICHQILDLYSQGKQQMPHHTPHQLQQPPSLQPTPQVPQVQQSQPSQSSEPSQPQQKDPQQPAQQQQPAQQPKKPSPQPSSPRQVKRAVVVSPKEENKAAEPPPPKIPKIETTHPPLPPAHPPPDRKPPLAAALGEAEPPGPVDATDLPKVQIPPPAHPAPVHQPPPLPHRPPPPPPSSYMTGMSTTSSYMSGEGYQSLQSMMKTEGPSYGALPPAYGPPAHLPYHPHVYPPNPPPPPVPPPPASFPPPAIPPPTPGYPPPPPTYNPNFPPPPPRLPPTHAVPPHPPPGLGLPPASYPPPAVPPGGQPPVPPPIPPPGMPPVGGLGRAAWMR
- test name: CDK12 nuclear protein level: immunofluorescence/high content analysis (CAL-120)
- Assay type: cell-based
- study conditions: CAL-120 cells, 24 h, immunofluorescence; 50% reduction of nuclear CDK12 staining intensity; median; read-out: CDK12 degradation IF, DC50- [mol/l] (median)
# DC50 listing for each entry below
Please format your answer as a value with the unit trailing.

Record excerpt, results attached:
>>> value_measured("CC1(O)CCN(c2nc(NCc3nc4ccccc4[nH]3)n3ncc(Br)c3n2)C1 (single isomer, unassigned) [Example 282]")
"27.9 nM"
>>> value_measured("CCNc1nc(NCc2nc3ccccc3[nH]2)n2ncc(Br)c2n1")
"16.8 nM"
>>> value_measured("COC1CCN(c2nc(NCc3nc4ccccc4[nH]3)n3ncc(Br)c3n2)CC1")
"10 nM"
>>> value_measured("CN1CCN(c2nc(NCc3nnc(-c4cccc(F)c4)[nH]3)n3ncc(Br)c3n2)CC1")
"3.61 nM"
>>> value_measured("Fc1ccc2[nH]c(CNc3nc(N4CCOCC4)nc4c(Br)cnn34)nc2c1")
"0.584 nM"

Quick one: DC50 for COC1CCN(c2nc(NCc3nnc(-c4ccccc4)[nH]3)n3ncc(Br)c3n2)CC1 ? 12.1 nM

Could you share which DC50 value was measured for CC(C)COc1nc(NCc2nc3ccccc3[nH]2)n2ncc(Br)c2n1 ? 29.8 nM

Value lookup for DC50; key = Fc1cc2nc(CNc3nc(N4C[C@H]5CC[C@@H](C4)N5)nc4c(C5CC5)cnn34)[nH]c2cc1Cl 3.95 nM

* * *

- system name: CDK12 (nuclear staining in CAL-120 cells) (Homo sapiens, UniProt Q9NYV4)
- Construct: endogenous in cells; host or cells: CAL-120 human breast cancer cells (DSMZ ACC 459)
- test name: CDK12 nuclear protein level: immunofluorescence/high content analysis (CAL-120)
- Type: cell-based
- study conditions: CAL-120 cells, 24 h, immunofluorescence; 50% reduction of nuclear CDK12 staining intensity; median; read-out: CDK12 degradation IF, DC50- [mol/l] (median)
Classify: satisfied when DC50 is strictly less than 10 nM; not satisfied when DC50 is not.

>>> assigned_class("CN(CC(C)(C)O)c1nc(NCc2nc3ccccc3[nH]2)n2ncc(Br)c2n1")
"satisfied"
>>> assigned_class("c1ccc(-c2nnc(CNc3nc(N4CCOCC4)nc4c(C5CC5)cnn34)[nH]2)cc1")
"not satisfied"
>>> assigned_class("Brc1cnn2c(NCc3nc4c([nH]3)CCCC4)nc(N3CCOCC3)nc12")
"not satisfied"
>>> assigned_class("OCC1CCN1c1nc(NCc2nc3ccccc3[nH]2)n2ncc(Br)c2n1 (centres unmarked)")
"not satisfied"
>>> assigned_class("Fc1cc2nc(CNc3nc(N4CC5CCC(C4)N5)nc4c(Br)cnn34)[nH]c2cc1Cl")
"satisfied"
>>> assigned_class("OC1(C(F)(F)F)CCN(c2nc(NCc3nc4ccccc4[nH]3)n3ncc(Br)c3n2)C1 (centres unmarked)")
"not satisfied"
>>> assigned_class("C[C@@H]1CN(c2nc(NCc3nc4c(F)c(F)ccc4[nH]3)n3ncc(C4CC4)c3n2)C[C@H](C)N1")
"satisfied"
>>> assigned_class("Brc1cnn2c(NCc3nc4ccccc4[nH]3)nc(N3CCN(C4CC4)CC3)nc12")
"not satisfied"
>>> assigned_class("CCC1COCCN1c1nc(NCc2nc3ccccc3[nH]2)n2ncc(Br)c2n1 (centres unmarked)")
"satisfied"
>>> assigned_class("CC(C)c1cnn2c(NCc3ncc(-c4ccccc4)[nH]3)nc(N3CCOCC3)nc12")
"not satisfied"

Is DC50 strictly under 10 nM for the entry COc1ccc2[nH]c(CNc3nc(N4CCOCC4)nc4c(C(F)(F)F)cnn34)nc2c1 ? satisfied

Below 10 nM on DC50? Entry CN1CCCC2CN(c3nc(NCc4nc5ccccc5[nH]4)n4ncc(Br)c4n3)CC21 (centres unmarked) not satisfied

Confirm or reject: DC50 of Fc1ccc(-c2cnn3c(NCc4nc5ccccc5[nH]4)nc(N4CCOCC4)nc23)cc1 lies strictly below 10 nM not satisfied

Is DC50 strictly under 10 nM for the entry OC[C@H]1CCCCN1c1nc(NCc2nnc(-c3ccccc3)[nH]2)n2ncc(Br)c2n1 ? satisfied

is_below(DC50, 10 nM) for FC(F)(F)Oc1ccc2[nH]c(CNc3nc(N4C[C@H]5CC[C@@H](C4)N5)nc4c(Br)cnn34)nc2c1 ? not satisfied

Dear reviewer, please state whether CN(C)[C@H]1CCN(c2nc(NCc3nc4ccccc4[nH]3)n3ncc(Br)c3n2)C1 has DC50 strictly beneath 10 nM. not satisfied

Given Brc1cnn2c(NCc3nc4ccccc4[nH]3)nc(N3CCNCC3)nc12 , is recorded DC50 strictly lower than 10 nM? satisfied

* * *

- system name: CDK12 (nuclear staining in CAL-120 cells) (Homo sapiens)
- Construct: endogenous in cells; host or cells: CAL-120 human breast cancer cells (DSMZ ACC 459)
- test name: CDK12 nuclear protein level: immunofluorescence/high content analysis (CAL-120)
- Format: cell-based
- study conditions: CAL-120 cells, 24 h, immunofluorescence; 50% reduction of nuclear CDK12 staining intensity; median; read-out: CDK12 degradation IF, DC50- [mol/l] (median)
Listed next: entries and their corresponding DC50.
Use nM as the unit, but write only the number.

>>> value_measured("CN1CCN(c2nc(NCc3nc4c(F)c(Cl)ccc4[nH]3)n3ncc(Br)c3n2)CC1")
1.12
>>> value_measured("C[C@@H]1CN(c2nc(NCc3nc4ccccc4[nH]3)n3ncc(Br)c3n2)C[C@H](C)O1")
5.15
>>> value_measured("Fc1ccccc1-c1cnn2c(NCc3nc4ccccc4[nH]3)nc(N3CCOCC3)nc12")
34.3

As a next step, examine the compound that follows.
Form field: reported DC50 of COc1cccc2[nH]c(CNc3nc(N4CCNCC4)nc4c(C5CC5)cnn34)nc12 2.32

* * *

- system name: CDK12/CycK (Homo sapiens)
- Sequence (Q9NYV4 with tags, fused parts or gaps): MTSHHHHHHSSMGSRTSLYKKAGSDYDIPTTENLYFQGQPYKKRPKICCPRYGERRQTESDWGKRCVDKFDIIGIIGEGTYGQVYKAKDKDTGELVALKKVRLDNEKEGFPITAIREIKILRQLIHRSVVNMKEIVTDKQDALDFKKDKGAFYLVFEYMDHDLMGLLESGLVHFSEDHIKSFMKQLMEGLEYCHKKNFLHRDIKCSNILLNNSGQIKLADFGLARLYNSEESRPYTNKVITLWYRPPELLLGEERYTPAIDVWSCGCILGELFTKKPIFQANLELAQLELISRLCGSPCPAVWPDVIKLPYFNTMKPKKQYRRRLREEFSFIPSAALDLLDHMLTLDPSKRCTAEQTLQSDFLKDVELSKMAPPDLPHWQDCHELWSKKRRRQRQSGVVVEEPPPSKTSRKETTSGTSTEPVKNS
- Sequence (O75909 1-300 partner limits assumed): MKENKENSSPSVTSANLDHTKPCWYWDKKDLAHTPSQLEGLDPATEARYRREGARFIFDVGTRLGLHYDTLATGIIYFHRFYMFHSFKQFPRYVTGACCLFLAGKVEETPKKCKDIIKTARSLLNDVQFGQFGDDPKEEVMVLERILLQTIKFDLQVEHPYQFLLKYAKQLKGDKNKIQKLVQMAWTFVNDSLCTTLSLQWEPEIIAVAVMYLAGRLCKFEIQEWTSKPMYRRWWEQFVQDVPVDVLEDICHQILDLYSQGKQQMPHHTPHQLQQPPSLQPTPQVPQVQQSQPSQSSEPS
- test name: CDK12/CycK high ATP kinase assay (TR-FRET, 2 mM ATP)
- study conditions: 2 mM ATP (high ATP); median; read-out: CDK12/CyclinK, 2 mM ATP (high ATP), IC50-[mol/l] (median)
Reported pIC50 is given for each of the following compounds.
pIC50 here is simply -log10 of the concentration when that concentration is written in mol/L.

The examples below pair each entry with its known result.
>>> value_measured("FC(F)(F)c1cccc(-c2nnc(CNc3nc(N4CCOCC4)nc4c(Br)cnn34)[nH]2)c1")
5.79
>>> value_measured("Fc1ccc2[nH]c(CNc3nc(N4CC5CCC(C4)N5)nc4c(Cl)cnn34)nc2c1F.O=CO")
5.40
>>> value_measured("Fc1cccc2[nH]c(CNc3nc(N4CCOCC4)nc4c(Br)cnn34)nc12")
6.10

Then there is this compound:
What measured pIC50 goes with Brc1cnn2c(NCc3nc4c([nH]3)CCCC4)nc(N3CCOCC3)nc12 ? 5.02

* * *

- System: Human tumour cells (cell line panel)
- test name: Proliferation assay: cell line panel (crystal violet, 4 days)
- Assay type: cell-based
- study conditions: HT-29, HT29, colorectal cancer, 2000 cells/well, read-out: Result Category, IC50 (mean)
pIC50: −log10 of the molar value.
metric: pIC50

If you can, please state the reported pIC50 value of Brc1cnn2c(NCc3nc4ccccc4[nH]3)nc(N3CCOCC3)nc12 . ≥ 7.52

* * *

The entries below come with measured (IC50 CDK12 high ATP) to (Degradation DC50 CDK12) ratio values attached.
- system name: CDK12 (nuclear staining in CAL-120 cells) (Homo sapiens, UniProt Q9NYV4)
- Construct: endogenous in cells; host or cells: CAL-120 human breast cancer cells (DSMZ ACC 459)
- test name: CDK12 nuclear protein level: immunofluorescence/high content analysis (CAL-120)
- Type: cell-based
- study conditions: ratio of IC50 CDK12 high ATP kinase assay to DC50 CDK12 degradation (IF, CAL-120)
Hey, just send me the number, nothing else.

>>> value_measured("CN(CC(C)(C)O)c1nc(NCc2nc3cc(C(F)(F)F)ccc3[nH]2)n2ncc(C3CC3)c2n1")
169

Please provide the recorded (IC50 CDK12 high ATP) to (Degradation DC50 CDK12) ratio for Fc1cccc2[nH]c(CNc3nc(N4CCOCC4)nc4c(CC(F)(F)F)cnn34)nc12 , tested on CDK12 (nuclear staining in CAL-120 cells) (Homo sapiens, UniProt Q9NYV4). 155

What is its (IC50 CDK12 high ATP) to (Degradation DC50 CDK12) ratio for CDK12 (nuclear staining in CAL-120 cells) (Homo sapiens, UniProt Q9NYV4)? Entry: C[C@H]1CN(c2nc(NCc3nnc(-c4cccc(F)c4)[nH]3)n3ncc(Br)c3n2)CCN1C 1360

Checklist item: (IC50 CDK12 high ATP) to (Degradation DC50 CDK12) ratio tested on CDK12 (nuclear staining in CAL-120 cells) (Homo sapiens, UniProt Q9NYV4), entry Brc1cnn2c(NCc3nc4ccccc4[nH]3)nc(N3CC4CCC3CO4)nc12 (centres unmarked) , value? 925

Which (IC50 CDK12 high ATP) to (Degradation DC50 CDK12) ratio is reported with CDK12 (nuclear staining in CAL-120 cells) (Homo sapiens, UniProt Q9NYV4) for this entry: Fc1cc(F)cc(-c2nnc(CNc3nc(N4CCOCC4)nc4c(Br)cnn34)[nH]2)c1 ? 429

Origin of the recorded values: patent US20230117034A1
